Test system: 4 PI3K isoforms (Human recombinant GST-PI3K)
Assay: PI3K scintillation proximity assay, best IC50 obtained with the four isoforms (alpha, beta, delta, gamma)
Type: biochemical
Settings: best IC50 obtained with the four isoforms of PI3K; read-out: Best potency measured on the 4 PI3K isoforms
value type: IC50
Don't forget the unit after the number, please.

Form field: reported IC50 of O=C(c1nn(C2CCCN(CCN3CCOCC3)C2)c2c1CS(=O)(=O)c1c(F)cccc1-2)N1CCOCC1 (stereo not shown)
16 nM

Form field: reported IC50 of O=C(CC1CCCCC1)N1CCC(n2nc(C(=O)N3CCOCC3)c3c2-c2ccccc2S(=O)(=O)C3)C1 (stereo not shown)
711 nM

Form field: reported IC50 of O=C(c1nn(C2CCOC2)c2c1CS(=O)(=O)c1ccccc1-2)N1CCOCC1 (stereo not shown)
890 nM

Form field: reported IC50 of O=C(c1nn(C2CCOCC2)c2c1C(F)S(=O)(=O)c1ccccc1-2)N1CCOCC1 (stereo not shown)
9800 nM

Form field: reported IC50 of O=C(c1nn(-c2ccccc2)c2c1C(Cc1ccccc1)S(=O)(=O)c1ccccc1-2)N1CCOCC1 (stereo not shown)
2480 nM

Form field: reported IC50 of "CS(=O)(=O)NCc1ccc(-n2nc(C(=O)N3CCOCC3)c3c2-c2ccccc2S(=O)(=O)C3)cc1"
421 nM

Form field: reported IC50 of "CS(=O)(=O)Nc1cccc(-n2nc(C(=O)N3CCOCC3)c3c2-c2ccccc2S(=O)(=O)C3)c1"
1780 nM
